assay: small-molecule microarray binders of probe aLefty2, primary screen, biochemical, biotinylated probe, 635/667 nm fluorescence (AID 1094); details: higher = more signal;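 note: score merges spot fluorescence near 667 nm with spot signal-to-noise ratio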
Value Type: composite z-score

CC(C)c1ccc(NN2C(C(O)C(C)C)C=CC3C(=O)N(c4ccccc4)C(=O)C32)cc1 (stereo unspecified) ... 0.633
CN1C(=O)[C@]2(CCS(=O)(=O)c3ccccc3)N=C(c3ccc(OCCCO)cc3)O[C@@H]2c2ccccc21 ... -0.0271
COCCOC(=O)N1C(=O)[C@@]2(c3ccccc31)[C@H](c1ccc(OCCO)cc1)N1[C@H](c3ccccc3)[C@H](c3ccccc3)OC(=O)[C@H]1[C@@H]2C(=O)N1CCN(c2ncccn2)CC1 ... 0.101
C=CCC(OC(C)=O)[C@@H]1[C@@H](N(Cc2cccc3ccccc23)C(=O)c2cccc3ccccc23)c2cc(OCCCO)ccc2N1C(=O)Cc1ccc2ccccc2c1 (stereo partly specified) ... -0.193
CC(C)C[C@@H]1NC(=O)C([C@@H](C)OCc2ccccc2)NC(=O)[C@@]23C(=O)N[C@@H](Cc4ccccc4)C2[C@H](C)[C@@]2(C)O[C@H]2C3/C=C/CC/C=C/CNC1=O (stereo partly specified) ... -0.129
CC(=O)NCCCC[C@@H]1NC(=O)[C@@H]2C[C@H](C(=O)NCCCCCC[N+](C)(C)C)[C@H](c3ccc(O)cc3)N2C1=O ... 0.104

---

z-score values for the compounds below.
experiment: A549 cell viability effects, profiling panel, calcein-AM fluorescence, 48 h, basal (AID 1162); conditions: higher = more signal; note: test concentration not given here
Value Type: z-score

CC(=O)NCCCC[C@@H]1NC(=O)[C@H]2C[C@@H](C(=O)NCCCCCC[N+](C)(C)C)[C@@H](c3ccc(O)cc3)N2C1=O ... -0.74
CC(=O)n1cc(C(O)C2C=CC3C(=O)N(c4ccccc4)C(=O)C3N2Nc2ccccc2F)c2ccccc21 (centres undefined) ... 0.512
COC(=O)[C@@]1(CCC(=O)OC(C)(C)C)N=C(c2ccc(OCCCO)cc2)O[C@H]1c1ccccc1CN=[N+]=[N-] ... -1.06
COc1ccc(NC(=O)O[C@H]2[C@H](OC(=O)Nc3ccc4c(c3)OCO4)[C@H](OC(=O)Nc3ccc4c(c3)OCO4)[C@@H](OC)O[C@@H]2CO)cc1 ... -0.798

---

assay: modulators of S6 phosphorylation in cells, primary screen, cell-based, A549, cytoblot, luminescence, serum-stimulated (AID 1158); details: A549 phospho-S6 cytoblot, 5 h, higher = more signal;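 note: serum-stimulated A549 lung adenocarcinoma cells; signal is phosphorylated S6 detected by cytoblot immunostaining with HRP secondary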
The label depends only on z-score: Condition met if it is at least 0.3, Condition not met if it is smaller.

CCCCNC(=O)c1ccc(C#C[Si](C)(C)C)c(OC(C)=O)c1 ... Condition met
CO[C@H]1O[C@H](CO)[C@@H](OC(=O)Nc2ccc(C(F)(F)F)cc2)[C@H](OC(=O)Nc2ccccc2-c2ccccc2)[C@@H]1OC(=O)Nc1ccccc1-c1ccccc1 ... Condition met
COC(=O)[C@@]1(Cc2ccc(F)cc2)[C@H]2c3cc(C(=O)N(C)C)n(CCn4cc([N+](=O)[O-])nc4C)c3C[C@H]2CN1C(=O)c1ccccc1 ... Condition not met
C=CCN1C(=O)[C@]2(O[C@H](CCO)[C@@H]([Si](C)(C)c3ccc(OC)cc3)[C@@H]2C)c2ccccc21 ... Condition not met
COCCOC(=O)N1C(=O)[C@@]2(c3cc(C#CC4=CCCCC4)ccc31)[C@H](C(=O)N1CCc3cc(OC)c(OC)cc3C1)[C@H]1C(=O)O[C@H](c3ccccc3)[C@H](c3ccccc3)N1[C@@H]2c1ccc(O)cc1 ... Condition not met
Cc1ccc(S[C@]2(C(=O)NCCCN(C)C)CC(=O)N(Cc3ccccc3Cl)[C@@H]2c2ccc(CO)cc2I)cc1 ... Condition not met
COCCn1c(C(=O)N2CCCC2)cc2c1C[C@H]1CN(C(=O)c3ccccc3)[C@@](Cc3ccccc3)(C(=O)OC)[C@@H]21 ... Condition met
CCCCC(=C=CC[C@@H](O)c1cccc(OCCO)c1)CCO ... Condition met
CO[C@H]1O[C@H](CO)[C@@H](OC(=O)Nc2ccc3c(c2)OCO3)[C@@H]2OC(=O)[C@@H](Cc3ccccc3)C/C=C/C[C@H](Cc3ccccc3)C(=O)O[C@@H]12 ... Condition met
Cc1ccc(F)cc1S(=O)(=O)N[C@@H]1CCN(Cc2ccc3[nH]ccc3c2)C1 ... Condition not met
COc1cccc(C[C@H]2C[C@@H](CO[Si](C(C)C)(C(C)C)C(C)C)N3C(=O)[C@@]4(C(C)=O)O[C@@]23[C@@H]2C(=O)N(C)C(=O)[C@@H]24)c1 ... Condition not met
C#CCN=C(N)N ... Condition not met
COc1ccc(CC[C@H](O)c2cccc(OCC(=O)OC(C)(C)C)c2)cc1 ... Condition not met
[N-]=[N+]=NCc1ccccc1[C@@H]1OC(c2ccc(OCCCO)cc2)=N[C@]1(Cc1ccccc1)C(=O)NCc1ccccc1 ... Condition not met
C=CCC(OC(C)=O)[C@@H]1[C@@H](N(Cc2cccc3ccccc23)C(=O)c2cccc3ccccc23)c2cc(OCCCO)ccc2N1C(=O)Cc1ccc2ccccc2c1 (some centres undefined) ... Condition met
COCCOC(=O)N1C(=O)[C@@]2(c3ccccc31)[C@H](c1ccc(OCCO)cc1)N1[C@H](c3ccccc3)[C@H](c3ccccc3)OC(=O)[C@H]1[C@@H]2C(=O)N1CCN(c2ncccn2)CC1 ... Condition not met
CC(C)=CCN(C(=O)C#Cc1ccccc1)[C@H](CO)c1ccccc1 ... Condition not met
C=CCOC(=O)[C@H]1[C@@H]2C(=O)O[C@@H](c3ccccc3)[C@@H](c3ccccc3)N2[C@@H](c2ccc(OCCOC(=O)[C@@H]3C[C@@H]4C(=O)N[C@@H](CC(C)C)C(=O)N4[C@@H]3c3ccc(O)cc3)cc2)[C@]12C(=O)Nc1ccc(I)cc12 ... Condition met
CC(C)C[C@@H]1NC(=O)[C@@H]2C[C@H](C(=O)O)[C@H](c3ccc(O)cc3)N2C1=O ... Condition met
CCCC=C(CCC)[C@@H](NS(=O)(=O)c1ccc(Cl)cc1)c1ccccc1 ... Condition met
O=C1c2ccccc2[C@@]2(Cc3ccccc3N(Cc3ccccc3)C2=O)[C@H](c2ccc(CO)cc2)N1Cc1ccccc1 ... Condition not met
C=CCNC(=O)[C@H]1[C@@H]2C(=O)O[C@@H](c3ccccc3)[C@@H](c3ccccc3)N2[C@@H](c2ccc(O)cc2)[C@]12C(=O)Nc1ccc(C#CC3=CCCCC3)cc12 ... Condition not met
O=C1c2ccccc2[C@](Cc2ccccc2I)(C(=O)O)[C@H](c2ccc(CO)cc2)N1Cc1ccccc1 ... Condition met
O=C1N(CCS(=O)(=O)c2ccccc2)c2ccccc2[C@@H]2OC(c3ccc(OCCCO)cc3)=N[C@]12CCS(=O)(=O)c1ccccc1 ... Condition not met
O=C1C2C=CC(C(O)c3cccs3)N(Nc3ccccc3)C2C(=O)N1c1ccccc1 (centres undefined) ... Condition met
COCCCN1C(=O)[C@@]2(Cc3ccccc31)c1ccccc1C(=O)N(Cc1ccccc1OC)[C@H]2c1ccc(CO)cc1 ... Condition met
COc1cc(OC)c(C(O)C2C=CC3C(=O)N(c4ccccc4)C(=O)C3N2Nc2ccccc2F)cc1Br (centres undefined) ... Condition not met
C=C(CCCC)C(=O)CC[C@H](OC(=O)c1cccnc1)c1ccc(CO)o1 ... Condition not met

These measurements were taken from PubChem BioAssay.
